B1: tRNA (parent)
chain: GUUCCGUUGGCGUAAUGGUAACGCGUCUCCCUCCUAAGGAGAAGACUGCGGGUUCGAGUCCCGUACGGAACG

- Variants of: B1
- run description: yeast fitness relative to wild type (ratio to wild type); higher = fitter; tRNA-Arg(CCU), competitive growth, 37 C, YPD
Fewer inactive variants are shown than the library holds.
assay metric: yeast fitness

C27A U28C C29G C61A; 0.664
C5U C29A C62A; ≤ 0.5
C4U G39C C46G C49G; ≤ 0.5
A15U C29U; 0.749
G12A U19C; 0.982
C22U G52A A57U; ≤ 0.5
A42C G58A; 0.951
C4A C22G C29U U35C; ≤ 0.5
C4G A43C C55A A57C; ≤ 0.5
C5G C46A G48A U64G; 0.546
G9A A14U C29G C34A G63A; ≤ 0.5
